Test system: mice writhing caused by acetic acid
Assay Info: Mice writhing caused by acetic acid
Condition Parameters: middle dose 15 mg/kg ig; writhing inhibition
Measured Endpoint: Inhibition ratio (%)

compound="O=C(Nc1cccc(Cl)c1)C1CCN(C(=O)c2cc3ccccc3[nH]2)CC1 [MAGLZ-II-18]" result_number=44.5
compound="O=C(Nc1cccc(Cl)c1)C1CCN(C(=O)c2cccc(O)c2)CC1 [MAGLZ-II-11]" result_number=55.5
compound="O=C(Nc1cccc(Cl)c1)C1CCN(C(=O)c2cc(O)ccc2F)CC1 [MAGLZ-II-11 (a)]" result_number=52.7
compound="O=C(Nc1cccc(Cl)c1)C1CCN(C(=O)c2cc3cc(F)ccc3[nH]2)CC1 [MAGLZ-II-18 (a)]" result_number=47.1
compound="Cn1c(C(=O)N2CCC(C(=O)Nc3cccc(Cl)c3)CC2)cc2ccccc21 [MAGLZ-II-18 (c)]" result_number=36.6

====

System: ulcerative colitis mice
Assay Info: Mice ulcerative colitis (DSS)
Format: in vivo, BALB/c mice
Condition Parameters: DSS mice; high dose 30 mg/kg ig
Record YES whenever Total times of hematochezia within the four periods is at 30 or higher; record NO when lower.

compound="O=C(Nc1cccc(Cl)c1)C1CCN(C(=O)c2cc3cc(F)ccc3[nH]2)CC1 [MAGLZ-II-18 (a)]" class_label=NO
compound="O=C(Nc1cccc(Cl)c1)C1CCN(C(=O)c2cccc(O)c2)CC1 [MAGLZ-II-11]" class_label=NO
compound="O=C(Nc1cccc(Cl)c1)C1CCN(C(=O)c2cc(O)ccc2F)CC1 [MAGLZ-II-11 (a)]" class_label=NO
compound="Cn1c(C(=O)N2CCC(C(=O)Nc3cccc(Cl)c3)CC2)cc2ccccc21 [MAGLZ-II-18 (c)]" class_label=YES
compound="O=C(Nc1ccc(Cl)cc1)C1CCN(C(=O)c2ccc(O)cc2)CC1 [MAGLZ-II-10]" class_label=YES
compound="O=C(Nc1cccc(Cl)c1)C1CCN(C(=O)c2cc3ccccc3[nH]2)CC1 [MAGLZ-II-18]" class_label=YES

====

System: mice writhing caused by acetic acid
Assay Info: Mice writhing caused by acetic acid
Condition Parameters: high dose 30 mg/kg ig, 1 h before 0.7% acetic acid ip; within 20 min
Measured Writhing times of individual entries
Measured Endpoint: Writhing times

structure_string=O=C(Nc1cccc(Cl)c1)C1CCN(C(=O)c2cc3cc(F)ccc3[nH]2)CC1 result_number=17.8
structure_string=Cn1c(C(=O)N2CCC(C(=O)Nc3cccc(Cl)c3)CC2)cc2ccccc21 result_number=19.9
structure_string=O=C(Nc1cccc(Cl)c1)C1CCN(C(=O)c2cc3ccccc3[nH]2)CC1 result_number=15.8
structure_string=O=C(Nc1cccc(Cl)c1)C1CCN(C(=O)c2cccc(O)c2)CC1 result_number=13.6
structure_string=O=C(Nc1cccc(Cl)c1)C1CCN(C(=O)c2cc(O)ccc2F)CC1 result_number=12.5

====

System: mice writhing caused by acetic acid
Assay Info: Mice writhing caused by acetic acid
Condition Parameters: low dose 7.5 mg/kg ig; time to first writhing
Measured Endpoint: Latent time (s)

structure_string=O=C(Nc1ccc(Cl)cc1)C1CCN(C(=O)c2ccc(O)cc2)CC1 result_number=235.4
structure_string=O=C(Nc1cccc(Cl)c1)C1CCN(C(=O)c2cc3ccccc3[nH]2)CC1 result_number=318.7
structure_string=O=C(Nc1cccc(Cl)c1)C1CCN(C(=O)c2cc(O)ccc2F)CC1 result_number=401.2
structure_string=Cn1c(C(=O)N2CCC(C(=O)Nc3cccc(Cl)c3)CC2)cc2ccccc21 result_number=263.5
structure_string=O=C(Nc1cccc(Cl)c1)C1CCN(C(=O)c2cc3cc(F)ccc3[nH]2)CC1 result_number=355.5
structure_string=O=C(Nc1cccc(Cl)c1)C1CCN(C(=O)c2cccc(O)c2)CC1 result_number=379.7
